System: Botrytis cinerea
Test: Antifungal activity against Botryotinia fuckeliana assessed as inhibition of mycelium growth at 50 ug/ml relative to control
Type: functional
measure-name: inhibition at 50 µg/mL (%)
State the answer as a number, implicitly in %.

Known results for molecules:
- molecule: "COC(=O)Nc1nc2ccccc2[nH]1 [CARBENDAZIM]"
  quantitative-result: 38
- molecule: "Cc1ccc(/C(=C/C(=O)NCCc2ccccc2)c2ccncc2)cc1C"
  quantitative-result: 15
- molecule: "COc1ccc(CCNC(=O)/C=C(/c2ccc(C)cc2)c2ccnc(Cl)c2)cc1OC"
  quantitative-result: 59

# inhibition at 50 µg/mL of CCc1ccc(/C(=C/C(=O)NCCc2ccc(O)cc2)c2ccnc(Cl)c2)cc1 = 37

# inhibition at 50 µg/mL of COc1ccc(/C(=C/C(=O)NCCc2ccccc2)c2ccnc(Cl)c2)cc1 = 55

# inhibition at 50 µg/mL of CCc1ccc(/C(=C/C(=O)NCCc2ccccc2)c2ccnc(Cl)c2)cc1 = 50

# inhibition at 50 µg/mL of COc1ccc(CCNC(=O)/C=C(\c2ccncc2)c2ccc(C)c(C)c2)cc1OC = 52

# inhibition at 50 µg/mL of N#Cc1c(Cl)c(Cl)c(Cl)c(C#N)c1Cl [CHLOROTHALONIL] = 95

# inhibition at 50 µg/mL of Cc1ccc(/C(=C/C(=O)NCCc2ccccc2)c2ccnc(Cl)c2)c(C)c1 = 43

# inhibition at 50 µg/mL of COc1ccc(CCNC(=O)/C=C(\c2ccnc(Cl)c2)c2ccc(C)cc2C)cc1OC = 40

# inhibition at 50 µg/mL of Cc1ccc(/C(=C/C(=O)NCCc2ccc(O)cc2)c2ccnc(Cl)c2)cc1C = 54

# inhibition at 50 µg/mL of CO/C=C(/C(=O)OC)c1ccccc1Oc1cc(Oc2ccccc2C#N)ncn1 [AZOXYSTROBIN] = 80

# inhibition at 50 µg/mL of Cc1ccc(/C(=C/C(=O)NCCc2ccccc2)c2ccnc(Cl)c2)cc1 = 44
